Test system: CAKI-1 renal
assay.overview: NCI-60 one-dose screen, 48 h (100 = growth as untreated, 0 = no growth, -100 = all killed)
settings: 10 µM
Procedure: Growth inhibition of the CAKI-1 human tumor cell line is measured as a screen for anti-cancer activity. Cells are grown in 96 well plates and exposed to the test compound for 48 hours. Compounds are tested at a single concentration, which is 10^-5 M for most compounds. The reported endpoint is percent growth (GI% or GIPRCNT), where numbers from 0 - 100% represent growth inhibition, and numbers from -100% - 0 represent cell death. For example, a value of 40 represents 60% growth inhibition. […]
This is part of a sample that, as a whole, favours compounds with a hit. Of some 83,000 tested, about 20% had one in any assay.
Measured growth, listed per entry for reference.
measured.attribute: growth (%)

- CCCCCCCO: 110
- COc1ccc(NC(=O)CCl)cc1: 97
- NC(=S)CN1CCOCC1: 95.6
- c1ncc2[nH]cnc2n1: 94.8
- N#CC(=Nc1cccc(F)c1)C1=C(O)c2ccccc2C1=O: 47
- Nc1ccccc1C(=O)Nc1ccc(Cl)cc1Cl: 69.1
- COc1ccccc1NC(=O)C1=C(C)NC(C)=C(C(=O)Nc2ccccc2OC)C1c1cccc([N+](=O)[O-])c1: 50.1
- CO[C@H]1C[C@@H]2CC[C@@H](C)[C@@](O)(O2)C(=O)C(=O)N2CCCC[C@H]2C(=O)O[C@H]([C@H](C)C[C@@H]2CC[C@@H](O)[C@H](OC)C2)CC(=O)[C@H](C)C=C(C)[C@@H](O)[C@@H](OC)C(=O)[C@H](C)C[C@H](C)/C=C/C=C/C=C1C: 52.2
- CCCCN(CCCC)CCCO: 106
- CC(C)OC(C(=O)O)c1ccccc1 (stereo not drawn): 101
- CCCCC1C(=O)N(c2ccccc2)N(c2ccccc2)C1=O: 103
- CCOc1ccc(Br)cc1/C=N\N=C\c1cc(Br)ccc1OCC: 90.8
- O=P(O)(O)OCC(O)CO (stereo not drawn): 104
- CCC(C)(O)c1ccc(C)cc1 (stereo not drawn): 104
- CSc1[nH]c(=O)ncc1F: 91.5
- CC1CCC(C(=O)O)N1 (stereo not drawn): 92.3
- NCCCN: 98.3
- COc1ccc(C(C)C=O)cc1 (stereo not drawn): 104
- CN(C)CCC(=O)c1ccc(O)cc1: 97.1
- NC(=O)N/N=C\c1ccco1: 108
- Cc1ccccc1N=C(c1ccccc1)C1C(=O)c2ccccc2C1=O: 84.6
- CCCC(=O)c1cc(C)ccc1OC: 104
- OCc1ccc(-c2ccc(-c3ccc(CO)s3)o2)s1: -54.3
- COc1ccc(C2(O)CCCCC2)cc1: 100
- C=C[Si](OC(C)=O)(OC(C)=O)OC(C)=O: 96.4
- CCCNc1ccc(C2=NCCCN2)cc1: 101
- O=C(O)/C=C/c1ccc2c(c1)CCC2: 94.5
- CC(=O)c1ccc(C)c(N)c1: 92.9
- COc1cc(/C=C/C(=O)c2ccccc2)cc(OC)c1OC: -23.3
- Sc1ccc(Nc2c3ccccc3nc3ccccc23)cc1: 92.2
- NC(=O)c1ccc(N=C(N)N=C(N)N)cc1: 93.4
- CCOC(=O)C1=C(C)NC(=O)NC1c1cccs1 (stereo not drawn): 103
- O=c1[nH]nc(SC2CCCCC2)c(=O)[nH]1: 95

* * *

Test system: NCI-H322M lung
assay.overview: NCI-60 one-dose screen, 48 h (100 = growth as untreated, 0 = no growth, -100 = all killed)
settings: 10 µM
Method: Growth inhibition of the NCI-H322M human Non-Small Cell Lung tumor cell line is measured as a screen for anti-cancer activity. Cells are grown in 96 well plates and exposed to the test compound for 48 hours. Compounds are tested at a single concentration, which is 10^-5 M for most compounds. The reported endpoint is percent growth (GI% or GIPRCNT), where numbers from 0 - 100% represent growth inhibition, and numbers from -100% - 0 represent cell death. […]
The panel holds about 83,000 compounds, 20% with a hit somewhere; the sample as a whole holds those more often.
Measured growth, listed per entry.
measured.attribute: growth (%)

- COc1cc(C2NC(=O)C(C#N)=C(Nc3cccc(C)c3)S2)ccc1O (stereo not given): 106
- Cc1ccncc1C(N)=O: 104
- CSC[C@H](NC(=O)COc1cccc2cnccc12)C(=O)NC(Cc1ccccc1)C(O)C(=O)N1CSC[C@H]1C(=O)NC(C)(C)C (stereo not given in full): 95.7
- CCCCCCCCCCC1CO1 (stereo not given): 109
- CC(=O)CC(=O)N(C)C: 101
- c1c(-c2cc(C3CC3)[nH]n2)n[nH]c1C1CC1: 94.8
- CCOC(=O)/C(=C/c1ccc(OC)cc1)N(CC)CC: 105
- COC(=O)c1ccccc1N(C)C: 104
- COc1cc2c3c(n(C)c(=O)c2cc1OC)-c1cc2c(cc1C3=O)OCO2: 89.9
- O=C(O)c1cccc([N+](=O)[O-])c1: 97.4

* * *

System: U251 CNS
assay.overview: NCI-60 one-dose screen, 48 h (100 = growth as untreated, 0 = no growth, -100 = all killed)
settings: 10 µM
About 83,000 compounds went through this panel and 20% of them were active in at least one assay; those are over-represented in the sample as a whole.
measured.attribute: growth (%)

* CN(C)C(=O)Oc1cccc([N+](C)(C)C)c1 | 97.9
* C/C(=N/NC(N)=O)c1ccco1 | 96.8
* O=c1c2ccccc2c(Br)c(Br)c2ccccc12 | 91
* CNS(=O)(=O)c1ccc(Cl)c(Cl)c1 | 99.3
* Cc1ccc(/C(C#N)=C/c2ccc3c(c2)OCO3)cc1 | 63.2
* CC1(C)N=C(N)N=C(N)N1c1ccc(Cl)cc1 | 31.5
* Cc1ccc(C)n1-c1ccsc1C(=O)NNC(=O)C(Cl)Cl | 107
* CC(C)C(C#N)(C(C)C)C(C)C | 102
* CC1(c2ccccc2)NC(=O)NC1=O (centres undefined) | 113
* CCOC(=O)C(=O)C=P(c1ccccc1)(c1ccccc1)c1ccccc1 | 107
* N=c1c(C(=O)OCc2ccccc2)ncc(CCl)n1O | 71.4
* Cc1ccc(CCCC(=O)O)c(C)c1 | 94.1
* CCN(CC)CCCC(C)Nc1ccnc(/C=C/c2ccc(Cl)cc2)c1 (centres undefined) | -58.1
* [O-][N+](=Nc1cccc(Cl)c1)c1cccc(Cl)c1 | 84.1
* S=C(Nc1ccccc1)N1CCCCC1 | 96.2
* CC1(C(=O)O)NC(C(=O)O)Cc2c1[nH]c1ccccc21 (centres undefined) | 102
* CC(=O)Oc1ccc(Br)cc1C(=O)O | 105
* COC(=O)c1[nH]c(=O)c(C#N)c(C(=O)OC)c1C(=O)c1ccccc1 | 96.8
* CC(=O)c1c[nH]c2ccccc12 | 95.7
* O=C(c1ccccc1)C1CCC1 | 76.1
* COc1ccc(-c2cc(-c3cc(-c4ccc(OC)cc4)nc(N)n3)nc(N)n2)cc1 | 101
* CCCCNC(=O)C(=O)NCCCC | 114
* COc1ncnc2c1cnn2C | 106
* CSC[C@H](NC(=O)COc1cccc2cnccc12)C(=O)NC(Cc1ccccc1)C(O)C(=O)N1CSC[C@H]1C(=O)NC(C)(C)C (some centres undefined) | 102
* Cc1cc(C(C)(C)C)cc(C)c1Br | 113
* O=C1C=CC2=C3c4cc(O)c(O)cc4CC3(O)COC2=C1O (centres undefined) | 105
* CCN(CC)C(=O)/C=C(/C)c1ccccc1 | 105
* CC(C)CCCC(=O)O | 103
* C1CNC(C2=NCCN2)=N1 | 102
* O=C(O)/C=C/C(=O)NCc1ccccc1 | 118
* CC1C(=O)c2ccccc2CC1C(=O)O (centres undefined) | 97.1
* Cc1cc(C)c(N)c(S(=O)(=O)O)c1 | 98.2
* Nc1ccc(C(=O)c2ccc(N)c(Br)c2)cc1Br | 18.2
* O=C(O)CCCc1ccccc1 | 95.3
* COC(=O)C(O)c1ccccc1 (centres undefined) | 104
* N#Cc1ccc(NC(=O)Nc2cccc(C#N)c2)cc1 | 91.8
* COc1ccccc1NC(=O)c1cc2cc(Br)ccc2cc1O | 8.67
* COc1cc(/C=N\Nc2ccccc2)ccc1OC(=O)c1ccccc1 | 81.5
* Cc1cc(N)ccc1-c1ccc(N)cc1C | 110
* CNC(=S)NC(C)(C)C | 97
* N#CCc1ccc([N+](=O)[O-])cc1 | 98.5
* CC1(C)N=C(N)N=C(N)N1c1cccc(Br)c1 | 32.9
* Cc1ncc(C#N)c(N)n1 | 100
* COc1cccc(/C=N/NC(=S)NC2CC3CCC2C3)c1O (centres undefined) | 42.2

* * *

System: HCT-116 colon
assay.overview: NCI-60 one-dose screen, 48 h (100 = growth as untreated, 0 = no growth, -100 = all killed)
settings: 10 µM
The panel holds about 83,000 compounds, 20% with a hit somewhere; the sample as a whole holds those more often.
measured.attribute: growth (%)

- O=c1c2ccccc2c(Br)c(Br)c2ccccc12: 17.8
- CC(C)=NNC(N)=S: 21.4
- NC(=S)N/N=C/c1ccc(N)cc1: 94.1
- N#C/C(=C\c1cc(O)c(O)c(O)c1)C(N)=O: 92.8
- CC(=O)N(C)c1ccc([N+](=O)[O-])cc1: 102
- CC(=O)Oc1ccc(Br)cc1C(=O)O: 95.4
- Cc1cc(C(O)(c2ccc(Nc3ccccc3)cc2)c2ccc(Nc3ccc(S(=O)(=O)O)cc3)cc2)ccc1N (stereo unspecified): 6.56
- N#CC1(Nc2ccc3c4c(cccc24)CC3)CCCCC1: 108
- CC(=O)OCC1CCCO1 (stereo unspecified): 105
- COc1ccc(C)cc1OC: 105
- CCOc1ccc(Br)cc1/C=N\N=C\c1cc(Br)ccc1OCC: 97.8
- CCCNc1ccc(C2=NCCCN2)cc1: 97
- CC1NC(=O)NC1CCCCCC(=O)O (stereo unspecified): 105
- COc1cc2cc(OC(C)=O)c3cc4c(cc3c2c(OC)c1OC)OCO4: 104
- CCOC(=O)C1OC1c1ccccc1 (stereo unspecified): 98.6
- COc1ccccc1C1OC2=Nc3cc(C)c(C)cc3NC2C1=O (stereo unspecified): 39.2
- CCCCC(CC)COC(C)=O (stereo unspecified): 108
- C/C(O)=C(\C=N\C(N)=S)C(=O)Nc1ccccc1: 102
- O=c1cc(-c2ccccc2)[nH]c2c1CCCC2: 27.9
- CC1OC(Oc2c(-c3ccc(O)c(O)c3)oc3cc(O)cc(O)c3c2=O)C(O)C(O)C1O (stereo unspecified): 105
- Nc1ncnc2c1nc(N)n2C1OC(CO)C(O)C1O (stereo unspecified): 1.19
